This collection of values is drawn from ChEMBL document CHEMBL5344409.

Assign Activity to each entry below.
Target Of Assay: Baculoviral IAP repeat-containing protein 2 (Homo sapiens)
Assay Overview: Induction of cIAP1 degradation in human MCF7 cells at 1 uM measured after 18 hrs by western blot analysis
Assay type: cell-based
Give bare numbers, in %.

The cases that follow already have their Activity on record.
stdin: Report Activity for CN[C@@H](C)C(=O)N[C@H](C(=O)N1Cc2cc(OCCOCCNC(=O)C3CCN(c4ccc5c(c4)C(=O)N(C4CCC(=O)NC4=O)C5=O)CC3)ccc2C[C@H]1C(=O)N[C@@H]1CCCc2ccccc21)C(C)(C)C (stereo partly drawn) tested on Baculoviral IAP repeat-containing protein 2 (Homo sapiens).
stdout: 93

stdin: For the record CN[C@@H](C)C(=O)N[C@H](C(=O)N1Cc2cc(OCCCCCNC(=O)C3CN(c4ccc5c(c4)C(=O)N(C4CCC(=O)NC4=O)C5=O)C3)ccc2C[C@H]1C(=O)N[C@@H]1CCCc2ccccc21)C(C)(C)C (stereo partly drawn) , what value of Activity is listed for Baculoviral IAP repeat-containing protein 2 (Homo sapiens)?
stdout: 89

We next turn to a different compound, shown below.
stdin: Which Activity is reported with Baculoviral IAP repeat-containing protein 2 (Homo sapiens) for this entry: CN[C@@H](C)C(=O)N[C@H](C(=O)N1Cc2cc(OCCCCCNc3cccc4c3C(=O)N(C3CCC(=O)NC3=O)C4=O)ccc2C[C@H]1C(=O)N[C@@H]1CCCc2ccccc21)C(C)(C)C (stereo partly drawn) ?
stdout: 92

----------
Target Of Assay: Protein cereblon/Baculoviral IAP repeat-containing protein 3 (Homo sapiens) (UniProt Q13489+Q96SW2)
Sequence (Q13489 whole entry, looked up): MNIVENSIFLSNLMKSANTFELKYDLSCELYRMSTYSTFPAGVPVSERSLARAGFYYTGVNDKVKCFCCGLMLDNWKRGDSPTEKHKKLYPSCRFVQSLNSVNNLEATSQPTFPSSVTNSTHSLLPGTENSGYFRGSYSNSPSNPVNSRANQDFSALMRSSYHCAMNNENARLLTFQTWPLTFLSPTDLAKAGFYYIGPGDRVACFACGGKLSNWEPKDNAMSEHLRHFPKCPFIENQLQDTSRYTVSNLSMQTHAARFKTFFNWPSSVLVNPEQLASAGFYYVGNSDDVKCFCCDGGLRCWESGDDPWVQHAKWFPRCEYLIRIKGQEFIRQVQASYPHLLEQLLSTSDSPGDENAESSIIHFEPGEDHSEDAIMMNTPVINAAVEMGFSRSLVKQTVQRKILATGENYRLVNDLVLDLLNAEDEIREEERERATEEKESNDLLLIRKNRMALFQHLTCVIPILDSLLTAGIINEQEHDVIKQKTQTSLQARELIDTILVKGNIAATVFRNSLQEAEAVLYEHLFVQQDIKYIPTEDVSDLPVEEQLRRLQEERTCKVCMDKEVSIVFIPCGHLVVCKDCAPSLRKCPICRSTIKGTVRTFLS
Sequence (Q96SW2 whole entry, looked up): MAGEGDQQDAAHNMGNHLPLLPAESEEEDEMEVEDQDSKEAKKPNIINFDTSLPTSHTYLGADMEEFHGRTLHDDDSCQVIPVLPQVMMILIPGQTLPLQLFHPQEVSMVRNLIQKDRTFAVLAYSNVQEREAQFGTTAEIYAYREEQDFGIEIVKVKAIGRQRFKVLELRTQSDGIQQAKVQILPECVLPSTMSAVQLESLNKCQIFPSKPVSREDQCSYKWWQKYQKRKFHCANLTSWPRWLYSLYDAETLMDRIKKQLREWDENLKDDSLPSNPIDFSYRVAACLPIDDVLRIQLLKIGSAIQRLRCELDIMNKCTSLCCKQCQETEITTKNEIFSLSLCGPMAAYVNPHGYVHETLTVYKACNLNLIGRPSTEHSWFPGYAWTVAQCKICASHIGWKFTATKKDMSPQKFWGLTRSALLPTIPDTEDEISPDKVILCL
Assay Overview: PROTAC activity at CRBN/cIAP2 in human MCF7 cells assessed as induction of cIAP2 degradation at 0.1 uM measured after 18 hrs by western blot analysis
Format: cell-based
Answer each item with its documented Activity.
Answers are plain numbers, in %.

Answered examples (5):
stdin: Consider the compound shown here: CN[C@@H](C)C(=O)N[C@H](C(=O)N1Cc2cc(OCCCCCNC(=O)C3CCN(c4ccc5c(c4)C(=O)N(C4CCC(=O)NC4=O)C5=O)CC3)ccc2C[C@H]1C(=O)N[C@@H]1CCCc2ccccc21)C(C)(C)C (some centres not stated) What is its recorded Activity?
stdout: 97

stdin: Reported Activity, compound CN[C@@H](C)C(=O)N[C@H](C(=O)N1Cc2cc(OCCOCCNC(=O)C3CCN(c4ccc5c(c4)C(=O)N(C4CCC(=O)NC4=O)C5=O)CC3)ccc2C[C@H]1C(=O)N[C@@H]1CCCc2ccccc21)C(C)(C)C (some centres not stated) : ____
stdout: 99

stdin: For CNC(C)C(=O)NC(C(=O)N1Cc2cc(OCCCCCNc3ccc4c(c3)C(=O)N(C3CCC(=O)NC3=O)C4=O)ccc2C[C@H]1C(=O)NC1CCCc2ccccc21)C(C)(C)C (single isomer, unassigned) , what is its reported Activity?
stdout: 100

stdin: Given the entry CN[C@@H](C)C(=O)N[C@H](C(=O)N1Cc2cc(OCCCCCNC(=O)C3CN(c4ccc5c(c4)C(=O)N(C4CCC(=O)NC4=O)C5=O)C3)ccc2C[C@H]1C(=O)N[C@@H]1CCCc2ccccc21)C(C)(C)C (some centres not stated) , report its measured Activity.
stdout: 100

stdin: Name the recorded Activity for CN[C@@H](C)C(=O)N[C@H](C(=O)N1Cc2cc(OCCCCCNC(=O)CNc3ccc4c(c3)C(=O)N(C3CCC(=O)NC3=O)C4=O)ccc2C[C@H]1C(=O)N[C@@H]1CCCc2ccccc21)C(C)(C)C (some centres not stated) .
stdout: 100

Hey, can you go through the list below and give me Activity for every item?
1. CN[C@@H](C)C(=O)N[C@H](C(=O)N1Cc2cc(OCCCCCNc3cccc4c3C(=O)N(C3CCC(=O)NC3=O)C4=O)ccc2C[C@H]1C(=O)N[C@@H]1CCCc2ccccc21)C(C)(C)C (some centres not stated)
2. CN[C@@H](C)C(=O)N[C@H](C(=O)N1Cc2cc(OCCCCCCCCNC(=O)C3CN(c4ccc5c(c4)C(=O)N(C4CCC(=O)NC4=O)C5=O)C3)ccc2C[C@H]1C(=O)N[C@@H]1CCCc2ccccc21)C(C)(C)C (some centres not stated)
3. CN[C@@H](C)C(=O)N[C@H](C(=O)N1Cc2cc(OCCCNC(=O)C3CCN(c4ccc5c(c4)C(=O)N(C4CCC(=O)NC4=O)C5=O)CC3)ccc2C[C@H]1C(=O)N[C@@H]1CCCc2ccccc21)C(C)(C)C (some centres not stated)

stdout:
1. 100
2. 90
3. 97

----------
Target Of Assay: Protein cereblon/E3 ubiquitin-protein ligase XIAP (Homo sapiens) (UniProt P98170+Q96SW2)
Sequence (P98170 whole entry, looked up): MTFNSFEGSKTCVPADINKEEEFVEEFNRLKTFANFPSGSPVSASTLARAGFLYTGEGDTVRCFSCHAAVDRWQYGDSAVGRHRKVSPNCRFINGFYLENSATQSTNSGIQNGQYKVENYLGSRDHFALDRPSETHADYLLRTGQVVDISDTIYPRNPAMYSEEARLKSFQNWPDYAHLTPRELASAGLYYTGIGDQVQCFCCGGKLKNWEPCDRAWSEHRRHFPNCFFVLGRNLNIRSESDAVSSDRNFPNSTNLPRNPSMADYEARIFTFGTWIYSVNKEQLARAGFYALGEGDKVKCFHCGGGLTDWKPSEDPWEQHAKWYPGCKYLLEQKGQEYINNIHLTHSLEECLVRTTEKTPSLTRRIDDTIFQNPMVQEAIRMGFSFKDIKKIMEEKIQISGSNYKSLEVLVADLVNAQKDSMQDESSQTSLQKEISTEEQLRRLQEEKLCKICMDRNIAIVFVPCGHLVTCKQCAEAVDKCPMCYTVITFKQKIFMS
Sequence (Q96SW2 whole entry, looked up): as the sequence (Q96SW2 whole entry, looked up) above
Assay Overview: PROTAC activity at CRBN/XIAP in human MCF7 cells assessed as induction of XIAP degradation at 0.1 uM measured after 18 hrs by western blot analysis
Format: cell-based
Activity strictly under 80% means T; at 80% or over means F.

Before answering, review these 6 worked examples.
stdin: Would you kindly verify if Activity of CN[C@@H](C)C(=O)N[C@H](C(=O)N1Cc2cc(OCCCCCNC(=O)C3CCN(c4ccc5c(c4)C(=O)N(C4CCC(=O)NC4=O)C5=O)CC3)ccc2C[C@H]1C(=O)N[C@@H]1CCCc2ccccc21)C(C)(C)C (some centres not stated) is strictly less than 80%?
stdout: F

stdin: Please state whether Activity is below 80% for CN[C@@H](C)C(=O)N[C@H](C(=O)N1Cc2cc(OCCCCCNC(=O)CNc3ccc4c(c3)C(=O)N(C3CCC(=O)NC3=O)C4=O)ccc2C[C@H]1C(=O)N[C@@H]1CCCc2ccccc21)C(C)(C)C (some centres not stated)
stdout: F

stdin: Field: below-cutoff. Rule: recorded Activity strictly less than 80%. Subject: CN[C@@H](C)C(=O)N[C@H](C(=O)N1Cc2cc(OCCOCCNC(=O)C3CCN(c4ccc5c(c4)C(=O)N(C4CCC(=O)NC4=O)C5=O)CC3)ccc2C[C@H]1C(=O)N[C@@H]1CCCc2ccccc21)C(C)(C)C (some centres not stated)
stdout: T

stdin: Given the entry CNC(C)C(=O)NC(C(=O)N1Cc2cc(OCCCCCNc3ccc4c(c3)C(=O)N(C3CCC(=O)NC3=O)C4=O)ccc2C[C@H]1C(=O)NC1CCCc2ccccc21)C(C)(C)C (single isomer, unassigned) , would its reported Activity be below 80%?
stdout: T

stdin: Strictly below 80%: is that where Activity of CN[C@@H](C)C(=O)N[C@H](C(=O)N1Cc2cc(OCCCNC(=O)C3CCN(c4ccc5c(c4)C(=O)N(C4CCC(=O)NC4=O)C5=O)CC3)ccc2C[C@H]1C(=O)N[C@@H]1CCCc2ccccc21)C(C)(C)C (some centres not stated) sits?
stdout: T

stdin: Lab log: compare recorded Activity with 80%; is it strictly lower for CN[C@@H](C)C(=O)N[C@H](C(=O)N1Cc2cc(OCCCCCNC(=O)C3CN(c4ccc5c(c4)C(=O)N(C4CCC(=O)NC4=O)C5=O)C3)ccc2C[C@H]1C(=O)N[C@@H]1CCCc2ccccc21)C(C)(C)C (some centres not stated) ?
stdout: T

Now turn to the next molecule.
stdin: Please state whether Activity is below 80% for CN[C@@H](C)C(=O)N[C@H](C(=O)N1Cc2cc(OCCCCCNC(=O)COc3ccc4c(c3)C(=O)N(C3CCC(=O)NC3=O)C4=O)ccc2C[C@H]1C(=O)N[C@@H]1CCCc2ccccc21)C(C)(C)C (some centres not stated)
stdout: F

----------
Target Of Assay: Protein cereblon (Homo sapiens)
Assay Overview: Induction of CRBN degradation in human MCF7 cells by western blot analysis
Assay type: cell-based
Active and inactive are the calls of the source. No cut-off for these calls is given here.
Quantity Measured: Activity

stdin: Please report the recorded Activity for CN[C@@H](C)C(=O)N[C@H](C(=O)N1Cc2cc(OCCCCCNc3cccc4c3C(=O)N(C3CCC(=O)NC3=O)C4=O)ccc2C[C@H]1C(=O)N[C@@H]1CCCc2ccccc21)C(C)(C)C (stereo partly drawn) .
stdout: inactive

stdin: For the molecule CN[C@@H](C)C(=O)N[C@H](C(=O)N1Cc2cc(OCCCCCCCCNC(=O)C3CN(c4ccc5c(c4)C(=O)N(C4CCC(=O)NC4=O)C5=O)C3)ccc2C[C@H]1C(=O)N[C@@H]1CCCc2ccccc21)C(C)(C)C (stereo partly drawn) , what Activity is on record?
stdout: inactive

stdin: Find the recorded Activity belonging to CN[C@@H](C)C(=O)N[C@H](C(=O)N1Cc2cc(OCCCCCNC(=O)COc3ccc4c(c3)C(=O)N(C3CCC(=O)NC3=O)C4=O)ccc2C[C@H]1C(=O)N[C@@H]1CCCc2ccccc21)C(C)(C)C (stereo partly drawn) and report it.
stdout: inactive

----------
Task for the reader: assign each of the following compounds its reported Activity.
Target Of Assay: Baculoviral IAP repeat-containing protein 2 (Homo sapiens)
Assay Overview: Induction of cIAP1 degradation in human MCF7 cells at 1 uM measured after 18 hrs by western blot analysis
Format: cell-based
Numbers only, in %.

A selection of reference data follows.
stdin: Given the entry CN[C@@H](C)C(=O)N[C@H](C(=O)N1Cc2cc(OCCCNC(=O)C3CCN(c4ccc5c(c4)C(=O)N(C4CCC(=O)NC4=O)C5=O)CC3)ccc2C[C@H]1C(=O)N[C@@H]1CCCc2ccccc21)C(C)(C)C (stereo partly specified) , what Activity was observed with Baculoviral IAP repeat-containing protein 2 (Homo sapiens)?
stdout: 95

stdin: Request: Activity, test system Baculoviral IAP repeat-containing protein 2 (Homo sapiens), entry CN[C@@H](C)C(=O)N[C@H](C(=O)N1Cc2cc(OCCCCCNC(=O)CNc3ccc4c(c3)C(=O)N(C3CCC(=O)NC3=O)C4=O)ccc2C[C@H]1C(=O)N[C@@H]1CCCc2ccccc21)C(C)(C)C (stereo partly specified)
stdout: 92

stdin: Quick check: Activity on Baculoviral IAP repeat-containing protein 2 (Homo sapiens), item CN[C@@H](C)C(=O)N[C@H](C(=O)N1Cc2cc(O)ccc2C[C@H]1C(=O)N[C@@H]1CCCc2ccccc21)C(C)(C)C ?
stdout: 95

stdin: Which Activity is reported with Baculoviral IAP repeat-containing protein 2 (Homo sapiens) for this entry: CN[C@@H](C)C(=O)N[C@H](C(=O)N1Cc2cc(OCCCCCNC(=O)C3CCN(c4cccc5c4C(=O)N(C4CCC(=O)NC4=O)C5=O)CC3)ccc2C[C@H]1C(=O)N[C@@H]1CCCc2ccccc21)C(C)(C)C (stereo partly specified) ?
stdout: 91

stdin: Quick check: Activity on Baculoviral IAP repeat-containing protein 2 (Homo sapiens), item CN[C@@H](C)C(=O)N[C@H](C(=O)N1Cc2cc(OCCCCCNC(=O)COc3ccc4c(c3)C(=O)N(C3CCC(=O)NC3=O)C4=O)ccc2C[C@H]1C(=O)N[C@@H]1CCCc2ccccc21)C(C)(C)C (stereo partly specified) ?
stdout: 91

Others:
stdin: Request - read-out Activity | tested on Baculoviral IAP repeat-containing protein 2 (Homo sapiens) | compound CN[C@@H](C)C(=O)N[C@H](C(=O)N1Cc2cc(OCCCCCNC(=O)C3CCN(c4ccc5c(c4)C(=O)N(C4CCC(=O)NC4=O)C5=O)CC3)ccc2C[C@H]1C(=O)N[C@@H]1CCCc2ccccc21)C(C)(C)C (stereo partly specified)
stdout: 93
